Test: Solubility problem noted during the assays
Type: physicochemical
Settings: read-out: Sol Prob (solubility problem at concentration)
measuredQuantity: solubility (µg/mL)
Write the number in µg/mL without appending the unit.

Below, each entry is followed by its recorded solubility result.
compound	resultUnits	solubility
CCCCCCCCC1(C)OC(=O)C=C1OCC(=O)Nc1ccc(Cl)cc1 (stereo not shown)	µg/mL	80
CCCCCCCCC1(C)SC(=O)C=C1OCC(=O)Nc1ccc(SC)cc1 (stereo not shown)	µg/mL	40
CCCCCCCCC1(C)SC(=O)C=C1OCC(=O)Nc1cccc(OC(F)(F)F)c1 (stereo not shown)	µg/mL	40

Form field: reported solubility of CCCCCCCCC1(C)SC(=O)C=C1OCC(=O)Nc1ccc(C#N)cc1 (stereo not shown)
80

Form field: reported solubility of CCCCCCCCC1(C)SC(=O)C=C1OCC(=O)Nc1ccc(C(N)=O)cc1 (stereo not shown)
80

====

System: OVCAR3 cells
Experiment: XTT cytotoxicity assay, OVCAR3 (OV)
Assay type: cell-based
Conditions: Homo sapiens, OVCAR-3
Procedure: XTT Cytotoxicity Assay The XTT assay is a non-radioactive alternative for the [^51Cr] release cytotoxicity assay. XTT is a tetrazolium salt that is reduced to a formazan dye only by metabolically active, viable cells. The reduction of XTT is measured spectrophotometrically as OD490-OD650. […] Plates are read at OD490 and OD650 on a Molecular Devices SpectraMax Plus Spectrophotometer. […] IC50 is calculated by linear regression, plotting the FAS activity as percent of control versus drug concentrations. […]
Listed next: entries and their corresponding IC50.
Write the number in µg/mL without appending the unit.

Below, each entry is followed by its recorded IC50 result.
compound	targetDesc	recordedNumber
CCCCCCCCC1(C)SC(=O)C=C1OCC(=O)N1CCN(Cc2ccc(OC)cc2)CC1 (centres unmarked)	OVCAR3 cells	79.8
CCCCCCCCC1(C)SC(=O)C=C1OCC(=O)Nc1ccc(C#N)cc1 (centres unmarked)	OVCAR3 cells	6.6
CCCCCCCCC1(C)SC(=O)C=C1OCC(=O)Nc1ccc(OC(F)(F)F)cc1 (centres unmarked)	OVCAR3 cells	3.3

Kindly review the next compound as well.
Form field: reported IC50 of CCCCCCCCC1(C)SC(=O)C=C1OCC(=O)Nc1ccc(OC)cc1 (centres unmarked)
17.8

====

Target: Human FAS purified from ZR-75-1 human breast cancer cells (Homo sapiens, UniProt P49327)
Construct: Human FAS was purified from cultured ZR-75-1 human breast cancer cells; endogenous in cells; enzyme purified by hypotonic lysis, PEG precipitation and Mono Q anion exchange
Sequence (P49327 2-2511 limits assumed): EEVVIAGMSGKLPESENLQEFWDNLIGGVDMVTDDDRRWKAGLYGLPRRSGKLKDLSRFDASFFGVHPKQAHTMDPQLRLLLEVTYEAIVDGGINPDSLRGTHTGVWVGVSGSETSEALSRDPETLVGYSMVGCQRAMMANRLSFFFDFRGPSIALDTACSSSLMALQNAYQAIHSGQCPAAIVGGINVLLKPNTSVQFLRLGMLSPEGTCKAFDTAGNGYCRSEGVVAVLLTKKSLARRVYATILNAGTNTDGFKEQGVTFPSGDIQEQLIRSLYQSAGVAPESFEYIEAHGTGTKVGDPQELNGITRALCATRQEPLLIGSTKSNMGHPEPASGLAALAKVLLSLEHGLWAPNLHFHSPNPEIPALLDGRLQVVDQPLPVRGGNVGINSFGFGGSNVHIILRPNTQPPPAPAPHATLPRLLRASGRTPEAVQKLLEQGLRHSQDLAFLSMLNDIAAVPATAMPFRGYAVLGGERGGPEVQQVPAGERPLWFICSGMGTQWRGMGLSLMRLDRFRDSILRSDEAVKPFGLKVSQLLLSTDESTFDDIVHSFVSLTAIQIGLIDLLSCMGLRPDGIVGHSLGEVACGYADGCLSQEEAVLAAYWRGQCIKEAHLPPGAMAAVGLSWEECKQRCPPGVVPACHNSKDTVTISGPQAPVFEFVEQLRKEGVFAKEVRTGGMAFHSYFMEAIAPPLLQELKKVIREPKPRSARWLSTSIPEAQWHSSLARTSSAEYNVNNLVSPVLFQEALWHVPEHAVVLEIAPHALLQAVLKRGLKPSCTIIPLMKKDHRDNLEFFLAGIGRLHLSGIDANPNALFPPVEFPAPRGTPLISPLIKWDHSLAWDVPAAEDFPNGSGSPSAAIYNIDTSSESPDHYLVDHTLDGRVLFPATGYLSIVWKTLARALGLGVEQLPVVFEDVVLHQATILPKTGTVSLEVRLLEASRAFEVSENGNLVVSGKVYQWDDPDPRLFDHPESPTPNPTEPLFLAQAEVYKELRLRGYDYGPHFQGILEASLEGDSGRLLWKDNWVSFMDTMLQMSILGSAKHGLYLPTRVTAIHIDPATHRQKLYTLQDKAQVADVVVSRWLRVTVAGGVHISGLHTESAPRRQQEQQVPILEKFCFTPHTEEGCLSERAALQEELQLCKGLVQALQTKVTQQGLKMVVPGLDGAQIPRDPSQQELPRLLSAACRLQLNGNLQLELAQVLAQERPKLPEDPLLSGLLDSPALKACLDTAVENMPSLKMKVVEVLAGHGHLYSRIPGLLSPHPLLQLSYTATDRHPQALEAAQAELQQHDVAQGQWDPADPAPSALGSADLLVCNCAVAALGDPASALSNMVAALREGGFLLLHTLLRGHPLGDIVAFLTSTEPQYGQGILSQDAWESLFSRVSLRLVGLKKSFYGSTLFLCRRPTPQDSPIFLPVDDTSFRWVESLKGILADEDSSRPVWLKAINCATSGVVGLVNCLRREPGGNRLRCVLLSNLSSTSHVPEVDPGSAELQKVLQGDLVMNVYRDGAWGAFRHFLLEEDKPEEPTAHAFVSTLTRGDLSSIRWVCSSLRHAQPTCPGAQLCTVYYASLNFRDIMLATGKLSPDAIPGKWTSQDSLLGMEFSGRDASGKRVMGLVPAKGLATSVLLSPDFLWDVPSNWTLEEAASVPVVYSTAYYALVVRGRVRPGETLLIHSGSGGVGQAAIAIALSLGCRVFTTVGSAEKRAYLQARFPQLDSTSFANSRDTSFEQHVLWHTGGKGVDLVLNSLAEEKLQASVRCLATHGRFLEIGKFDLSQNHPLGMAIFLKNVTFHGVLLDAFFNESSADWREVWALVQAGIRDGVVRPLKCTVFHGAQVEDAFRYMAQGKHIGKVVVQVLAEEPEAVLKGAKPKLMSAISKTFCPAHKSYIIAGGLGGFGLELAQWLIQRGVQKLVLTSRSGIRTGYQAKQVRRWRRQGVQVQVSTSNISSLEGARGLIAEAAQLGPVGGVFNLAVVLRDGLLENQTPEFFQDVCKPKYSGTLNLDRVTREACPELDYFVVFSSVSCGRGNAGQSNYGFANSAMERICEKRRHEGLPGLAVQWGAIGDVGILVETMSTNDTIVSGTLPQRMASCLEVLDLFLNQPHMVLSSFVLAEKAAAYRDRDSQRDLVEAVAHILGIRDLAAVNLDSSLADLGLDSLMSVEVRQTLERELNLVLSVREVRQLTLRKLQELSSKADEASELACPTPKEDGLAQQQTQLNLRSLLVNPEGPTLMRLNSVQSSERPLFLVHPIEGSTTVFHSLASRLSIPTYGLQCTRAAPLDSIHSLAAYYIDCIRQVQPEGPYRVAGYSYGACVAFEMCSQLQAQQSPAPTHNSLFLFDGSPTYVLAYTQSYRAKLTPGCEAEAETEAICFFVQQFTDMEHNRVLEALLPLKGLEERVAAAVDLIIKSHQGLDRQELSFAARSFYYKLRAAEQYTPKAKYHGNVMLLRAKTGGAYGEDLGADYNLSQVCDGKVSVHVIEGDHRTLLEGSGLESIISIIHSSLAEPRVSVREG
Experiment: FAS enzymatic activity (malonyl-CoA dependent NADPH oxidation)
Conditions: (SB)
measuredQuantity: IC50 (µM)
Write the number in µM without appending the unit.

Form field: reported IC50 of CCCCCCCCC1(C)SC(=O)C=C1OCC(=O)Nc1ccc(Cl)cc1 (stereo not shown)
266

====

Experiment: Solubility problem noted during the assays
Format: physicochemical
Conditions: noted under the 14C column, unit inferred; read-out: Sol Prob (solubility problem at concentration)
Listed next: entries and their corresponding solubility.
Put your answer as a value accompanied by its unit after it.

molecule	solubility
CCCCCCCCC1(C)SC(=O)C=C1OCC(=O)Nc1ccc(C(=O)OC)cc1 (centres unmarked)	80 µg/mL

Kindly review the next molecule as well.
Form field: reported solubility of CCCCCCCCC1(C)SC(=O)C=C1OCC(=O)Nc1ccc(F)cc1 (centres unmarked)
80 µg/mL

====

Test system: MCF-7 human breast cancer cells (fatty acid oxidation pathway activity)
Experiment: Fatty acid oxidation ([14C]palmitate to acid soluble products)
Format: cell-based
Settings: Homo sapiens, MCF7; at 1.56 μg/ml; read-out: FAO Max
Listed next: entries and their corresponding Emax at 1.56 µg/mL.
Put your answer as a value accompanied by its unit after it.

Below, each entry is followed by its recorded Emax at 1.56 µg/mL result.
molecule	Emax at 1.56 µg/mL
CCCCCCCCC1(C)SC(=O)C=C1OCC(=O)N1CCN(c2ccc(C(F)(F)F)cc2)CC1 (centres unmarked)	118%
CCCCCCCCC1(C)SC(=O)C=C1OCC(=O)Nc1ccc(F)cc1 (centres unmarked)	106%
CCCCCCCCC1(C)SC(=O)C=C1OCC(=O)Nc1ccccc1N1CCCCC1 (centres unmarked)	119%
CCCCCCCCC1(C)SC(=O)C=C1OCC(=O)Nc1ccc(Cl)cc1 (centres unmarked)	106%
CCCCCCCC[C@]1(C)SC(=O)C=C1OCC(=O)Nc1ccccc1C(F)(F)F	105%

Query for MCF-7 human breast cancer cells (fatty acid oxidation pathway activity): what Emax at 1.56 µg/mL does the record show for CCCCCCCCC1(C)SC(=O)C=C1OCC(=O)Nc1cccc(OC(F)(F)F)c1 (centres unmarked) ?
122%

Query for MCF-7 human breast cancer cells (fatty acid oxidation pathway activity): what Emax at 1.56 µg/mL does the record show for CCCCCCCCC1(C)SC(=O)C=C1OCC(=O)Nc1ccc(Cl)cc1Cl (centres unmarked) ?
141%

Query for MCF-7 human breast cancer cells (fatty acid oxidation pathway activity): what Emax at 1.56 µg/mL does the record show for CCCCCCCCC1(C)SC(=O)C=C1OCC(=O)Nc1ccc(Cl)cc1C(F)(F)F (centres unmarked) ?
141%

====

System: MCF-7 human breast cancer cells (fatty acid oxidation pathway activity)
Assay: Fatty acid oxidation ([14C]palmitate to acid soluble products)
Format: cell-based
Settings: Homo sapiens, MCF7; at 6.25 μg/ml; read-out: FAO Max
measuredQuantity: Emax at 6.25 µg/mL (%)
Write the number in % without appending the unit.

Below, each entry is followed by its recorded Emax at 6.25 µg/mL result.
compound	resultUnits	Emax at 6.25 µg/mL
CCCCCCCCC1(C)SC(=O)C=C1OCC(=O)Nc1ccc(C(=O)OC)cc1 (centres unmarked)	%	126
CCCCCCCCC1(C)SC(=O)C=C1OCC(=O)Nc1ccc(SC)cc1 (centres unmarked)	%	100
CCCCCCCCC1(C)SC(=O)C=C1OCC(=O)Nc1ccccc1SC (centres unmarked)	%	114

Form field: reported Emax at 6.25 µg/mL of CCCCCCCCC1(C)SC(=O)C=C1OCC(=O)Nc1ccc(Oc2ccc(Cl)cc2)cc1 (centres unmarked)
109

Form field: reported Emax at 6.25 µg/mL of CCCCCCCCC1(C)SC(=O)C=C1OCC(=O)Nc1ccc(C(F)(F)F)cc1 (centres unmarked)
130

====

Tested on: MCF-7 human breast cancer cells (fatty acid oxidation pathway activity)
Test: Fatty acid oxidation ([14C]palmitate to acid soluble products)
Type: cell-based
Conditions: Homo sapiens, MCF7; at 0.098 μg/ml; read-out: FAO Max
Listed next: entries and their corresponding Emax at 0.098 µg/mL.
Write the number in % without appending the unit.

compound	targetDesc	measuredQuantity	resultUnits	recordedNumber
CCCCCCCCC1(C)SC(=O)C=C1OCC(=O)N1CCN(c2ccc(OC)cc2)CC1 (stereo not shown)	MCF-7 human breast cancer cells (fatty acid oxidation pathway activity)	Emax at 0.098 µg/mL	%	53
CCCCCCCCC1(C)SC(=O)C=C1OCC(=O)N1CCN(c2ccc(Cl)cc2)CC1 (stereo not shown)	MCF-7 human breast cancer cells (fatty acid oxidation pathway activity)	Emax at 0.098 µg/mL	%	79
CCCCCCCCC1(C)SC(=O)C=C1OCC(=O)Nc1ccc(OC)cc1 (stereo not shown)	MCF-7 human breast cancer cells (fatty acid oxidation pathway activity)	Emax at 0.098 µg/mL	%	90
CCCCCCCCOc1ccc(NC(=O)COC2=CC(=O)SC2(C)CCCCCCCC)cc1 (stereo not shown)	MCF-7 human breast cancer cells (fatty acid oxidation pathway activity)	Emax at 0.098 µg/mL	%	97
CCCCCCCCC1(C)SC(=O)C=C1OCC(=O)N1CCN(Cc2ccc(OC)cc2)CC1 (stereo not shown)	MCF-7 human breast cancer cells (fatty acid oxidation pathway activity)	Emax at 0.098 µg/mL	%	83
CCCCCCCCC1(C)SC(=O)C=C1OCC(=O)Nc1ccccc1 (stereo not shown)	MCF-7 human breast cancer cells (fatty acid oxidation pathway activity)	Emax at 0.098 µg/mL	%	122

Kindly review the next compound as well.
Form field: reported Emax at 0.098 µg/mL of CCCCCCCCC1(C)SC(=O)C=C1OCC(=O)Nc1ccc2c(c1)OCO2 (stereo not shown)
45

====

Tested on: OVCAR3 cells
Assay: XTT cytotoxicity assay, OVCAR3 (OV)
Type: cell-based
Conditions: Homo sapiens, OVCAR-3
measuredQuantity: IC50

Below, each entry is followed by its recorded IC50 result.
compound	IC50
CCCCCCCCC1(C)SC(=O)C=C1OCC(=O)N1CCN(c2ccc(OC)cc2)CC1 (stereo not drawn)	> 80 µg/mL
CCCCCCCC[C@]1(C)SC(=O)C=C1OCC(=O)Nc1ccccc1OC(F)(F)F	> 80 µg/mL

Query for OVCAR3 cells: what IC50 does the record show for CCCCCCCCC1(C)SC(=O)C=C1OCC(=O)N1CCN(c2ccc(C(F)(F)F)cc2)CC1 (stereo not drawn) ?
> 80 µg/mL

====

Experiment: Solubility problem noted during the assays
Assay type: physicochemical
Details: read-out: Sol Prob (solubility problem at concentration)
measuredQuantity: solubility
Put your answer as a value accompanied by its unit after it.

Below, each entry is followed by its recorded solubility result.
molecule	measuredQuantity	result
CCCCCCCCC1(C)SC(=O)C=C1OCC(=O)Nc1ccc(S(N)(=O)=O)cc1 (centres unmarked)	solubility	80 µg/mL
CCCCCCCC[C@]1(C)SC(=O)C=C1OCC(=O)Nc1ccccc1C(F)(F)F	solubility	80 µg/mL
CCCCCCCCC1(C)SC(=O)C=C1OCC(=O)Nc1ccccc1SC (centres unmarked)	solubility	40 µg/mL

Form field: reported solubility of CCCCCCCCC1(C)SC(=O)C=C1OCC(=O)Nc1ccc(Cl)cc1Cl (centres unmarked)
40 µg/mL

Form field: reported solubility of CCCCCCCCC1(C)SC(=O)C=C1OCC(=O)Nc1cccc(C(F)(F)F)c1 (centres unmarked)
80 µg/mL
